// provenance: ChEMBL document CHEMBL1201862

Test system: HT-29
TEST METHOD NOTES: NCI tumour cell line growth inhibition, 48 h
The source made the active and inactive calls. Rule as the data show it: active = GI50 up to about 1.1 µM and inactive = higher.
OUTCOME MEASURE: GI50

Worked examples, 6 compounds total:
NC(=O)NO [HYDROXYUREA]: 605 µM (inactive)
Nn1c(CCCl)nc2c(Br)cc(Br)cc2c1=O: 32.7 µM (inactive)
CCCCCCCCCc1cc(O)c(O)cc1CCCCCCCCC: > 10 µM (inactive)
COc1cccc(C2ON=C(c3ccccc3)N2C23CC4CC(CC(C4)C2)C3)c1 (stereo not drawn): > 10 µM (inactive)
CCC12CC(c3ccccc3)C(C(=O)N1)C(=O)N2 (stereo not drawn): > 100 µM (inactive)
C/C(=C\c1ccccn1)c1ccccn1: > 100 µM (inactive)

GET GI50 where system = HT-29 and item = `c1ccc2c(c1)N[C@@H]1c3[nH]c4ccccc4c3CC[C@H]21`
15.6 µM (inactive)

Give HT-29 GI50 for the following compound: O=C1NC(Cc2c[nH]c3ccccc23)C(=O)N2C(c3ccccc3)c3[nH]c4ccccc4c3C[C@@H]12 (stereo partly drawn)
22.1 µM (inactive)

Report value: GI50, system: HT-29, compound: `CC(=O)O[C@H]1C=CC23OC(=O)[C@]1(C)[C@H]2[C@H](C(=O)O)C12CC(=O)[C@@](CO)(CC[C@H]13)C2`
> 100 µM (inactive)

Give GI50 for this entry on HT-29: CC1CCC2(OC1)OC1CC3C4CCC5CC(O)CCC5(C)C4CC(=O)OC3(C)C1C2C (stereo not drawn)
> 100 µM (inactive)

Please look at `O=[N+]([O-])c1ccc(Cl)cc1N/N=C/c1cccs1` and tell me its recorded GI50 on HT-29.
> 100 µM (inactive)

Recall the reported GI50 of `COc1ccc2c(c1)C(=O)C(=O)c1cc(O)c(OC)c(OC)c1-2` on HT-29 and write it down.
1.32 µM (inactive)

Find GI50 for COc1ccc(N2C(=O)C3c4[nH]c5ccccc5c4C4CCCCCCCC4C3C2=O)cc1 (stereo not drawn) on HT-29 and write it down.
> 10 µM (inactive)

* * *

The entries below come with measured GI50 values attached.
System: RPMI-8226
TEST METHOD NOTES: NCI tumour cell line growth inhibition, 48 h
Activity calls are given as the source filed them. Cut-off read from the data, not from the text of the source: active = GI50 up to about 1.1 µM and inactive = higher.

FC1=C2C3CCC(C3)C2C1(F)F (stereo not given): > 100 µM (inactive)

Give reported GI50 for `C[C@]12CC[C@H]3[C@@H](CCC4=CC(=O)CC[C@@H]43)[C@@H]1CC[C@]2(O)C(N)=O` (RPMI-8226)
> 100 µM (inactive)

Provide GI50, recorded with RPMI-8226, of `Cc1cc(SCC(=O)c2ccccc2)nc2ccccc12`
> 100 µM (inactive)

// fetch GI50 for `O=C1NC2(CCCCC2)C(=O)N1CCN(CCCl)CCCl` ; system: RPMI-8226
134 µM (inactive)

Print RPMI-8226 GI50 for `Nc1nc(Cl)cc(NCCO)n1` .
> 100 µM (inactive)

* * *

Tested on: SF-539
TEST METHOD NOTES: NCI tumour cell line growth inhibition, 48 h
Active and inactive are the calls of the source. Rule as the data show it: active = GI50 up to about 1.1 µM and inactive = higher.
# valid calls are active, inactive; nothing else

Here's what some known entries look like.
Clc1c2ncccc2cc2nn[nH]c12: inactive
Cc1ccc2nnc(NS(=O)(=O)c3cc(C)c(Cl)cc3S)n2n1: inactive
COc1cc2c(c(OC)c1OC)-c1ccc(SC)c(=O)cc1[C@@H](NCc1ccccc1[N+](=O)[O-])CC2: active
Oc1ccc2c(O)cc(-c3ccccc3)nc2c1: inactive
O=C(NCCCl)Nc1cccnc1: inactive

Look up the recorded call for `COc1ccc2c(c1)C(=O)C(=O)c1cc(O)c(OC)c(OC)c1-2` in this test.
inactive

How did this test come out for `O=C1NI(C#Cc2ccccc2)c2ccccc21` ?
inactive

Record request — test call for `O=[N+]([O-])c1ccc2c(c1)/C(=N/N=C1c3ccccc3Cc3ccccc31)c1cc([N+](=O)[O-])cc([N+](=O)[O-])c1-2`
inactive

* * *

System: ACHN
TEST METHOD NOTES: NCI tumour cell line growth inhibition, 48 h
Activity calls are given as the source filed them. No stated cut-off is given here; in the data, active = GI50 up to about 1.1 µM and inactive = higher.
Response enum: active, inactive

Could you kindly confirm the outcome this assay logged for `COc1cccc(/C(C=O)=C(\Cl)c2ccc(OC)c(OC)c2)c1` ?
inactive

// outcome(item) with item = `N/C(=N\Nc1ccc(S(N)(=O)=O)cc1)c1cnccn1`
inactive

Please share the test call associated with `Cn1c(=O)oc2cc(C(=S)N3CCCCC3)ccc21` .
inactive

Could you check what this test reported for CCOC1Oc2ccccc2-c2nc(SC)ncc21 (stereo unspecified) ?
inactive

// outcome(item) with item = `CC(=O)Oc1c(C)c2c(c3ccccc13)OC(C)(C)C2`
inactive

* * *

System: 786-0
TEST METHOD NOTES: NCI tumour cell line growth inhibition, 48 h
Activity calls are given as the source filed them. Cut-off read from the data, not from the text of the source: active = GI50 up to about 1.1 µM and inactive = higher.
Return exactly one item of Yes = active, No = inactive

Worked examples, 3 compounds total:
N=C(N)N/N=C/c1c(-c2ccc(Cl)cc2)nc2n1CCS2: No
COc1cccc(-c2cc(O)c3cc(Cl)cnc3n2)c1: Yes
Cc1cccc(C(C)(C)C)c1NC(=O)C(C#N)C1=C(Cl)C(=O)c2ccccc2C1=O (centres undefined): No

Just curious, what result did CC1=NN(C(=O)CC(=O)Nc2ccc(Cl)cc2)C(=O)C1/N=N\c1ccc(S(=O)(=O)c2ccc(/N=N/C3C(=O)N(C(=O)CC(=O)Nc4ccc(Cl)cc4)N=C3C)cc2)cc1 (centres undefined) get here?
No

* * *

Tested on: MDA-MB-231
TEST METHOD NOTES: NCI tumour cell line growth inhibition, 48 h
Active and inactive are the calls of the source. No stated cut-off is given here; in the data, active = GI50 up to about 1.1 µM and inactive = higher.
OUTCOME MEASURE: GI50

Solved entries:
CC1=C(C(=O)N[C@@H](CC(C)C)C(=O)O)N2C(=O)[C@@H](NC(=O)[C@@H](N)Cc3ccccc3)[C@H]2SC1: > 100 µM (inactive)
CCCCCCCCCc1cc(O)c(O)cc1CCCCCCCCC: > 10 µM (inactive)
CCOC1Oc2ccccc2-c2nc(SC)ncc21 (centres undefined): 62.8 µM (inactive)
CC1(C)SC2C(NC(=O)Cc3ccccc3)C(=O)N2C1C(=O)O (centres undefined): > 100 µM (inactive)
O=C(O)Cc1cccc2c(=O)cc(-c3ccccc3)oc12 [MITOFLAXONE]: > 250 µM (inactive)
COc1cc(C(c2cc(OC)c(OC)c(OC)c2)N2C(=O)CCC2C(=O)O)cc(OC)c1OC (centres undefined): > 100 µM (inactive)
CCOC(=O)C1CCCc2sc(N)c(C#N)c21 (centres undefined): > 100 µM (inactive)
CCOC(=O)/C=C/CCO[Si](C)(C)C(C)(C)C: > 100 µM (inactive)

# context switch: different compound, same GI50
Let me know recorded GI50 for CC1OC(O[C@H]2C3C=CO[C@@H](OC4OC(CO)C(O)C(O)C4O)C3[C@@]3(COC(=O)/C=C/c4ccc(O)cc4)O[C@@H]23)C(O)C(O)C1O (some centres undefined) , thanks.
> 100 µM (inactive)

* * *

Test system: ACHN
TEST METHOD NOTES: NCI tumour cell line growth inhibition, 48 h
Active and inactive are the calls of the source. No stated cut-off is given here; in the data, active = GI50 up to about 1.1 µM and inactive = higher.
Outcome (select one): T (active), F (inactive)

Sample answers from the record:
c1ccc(C(=NCCC2CNc3ccccc32)c2ccccc2)cc1 (stereo unspecified): F
CC1(C)SC2C(NC(=O)Cc3ccccc3)C(=O)N2C1C(=O)O (stereo unspecified): F

Turning to the following compound.
Give the logged outcome of this assay for the following compound: `C/C(Cc1ccc2c(c1)OCO2)=N\N=c1\sc2ccccc2n1C`
F

* * *

System: ACHN
TEST METHOD NOTES: NCI tumour cell line growth inhibition, 48 h
The source made the active and inactive calls. No stated cut-off is given here; in the data, active = GI50 up to about 1.1 µM and inactive = higher.
Field 'call' accepts active, inactive

Recorded call for CN/N=C(\C(=O)Nc1ccc([N+](=O)[O-])cc1[N+](=O)[O-])C1NC(=O)NC1=O (stereo not drawn) ?
inactive

* * *

Test system: ACHN
TEST METHOD NOTES: NCI tumour cell line growth inhibition, 48 h
Active and inactive are the calls of the source. Rule as the data show it: active = GI50 up to about 1.1 µM and inactive = higher.
// allowed return values: y (active), n (inactive)

O=c1c2cn[nH]c2nc2scc(-c3ccc(Cl)cc3)n12: n
COc1cccc(-c2cc(O)c3cc(Cl)cnc3n2)c1: y
Cc1ccnc2nc(-c3ccc(F)cc3)cc(O)c12: n
Cn1c(=O)c(-c2ccccc2)c(O)c2ccccc21: n
O=C1CC(c2ccccc2Cl)C2(C(=O)NC(=S)NC2=O)C(c2ccccc2Cl)C1 (configuration not stated): n

Which outcome was entered for the compound COc1cccc(C2ON=C(c3ccccc3)N2C23CC4CC(CC(C4)C2)C3)c1 (configuration not stated) in this test?
n

* * *

System: ACHN
TEST METHOD NOTES: NCI tumour cell line growth inhibition, 48 h
Activity calls are given as the source filed them. Rule as the data show it: active = GI50 up to about 1.1 µM and inactive = higher.
// one of Yes (active), No (inactive), no free text

O=C(O)CCc1nc2c(n1Cc1ccccc1)C(=O)c1ccccc1C2=O: No
CCOC1c2cc(OC)c(OC)cc2-c2ccc3ccccc3c2N1C (stereo unspecified): No
C/C(=N/NC(=S)Nc1ccccc1C)c1ccccn1: Yes
c1ccc2c(c1)N[C@@H]1c3[nH]c4ccccc4c3CC[C@H]21: No

Any idea what this test logged for `C/C(=C\c1ccccn1)c1ccccn1` ?
No

What did the test return for `C=CCn1c(-c2ccccc2)cs/c1=N\C(P(=O)(O)O)P(=O)(O)O` ?
No
